As shown below, each of these compounds has a reported TGI value.
Tested on: SW-620 colon
test-method-notes: NCI tumour cell line growth inhibition, 48 h

compound	tested-on	TGI
COc1cc(/C=N\c2nc(-c3ccc(NS(=O)(=O)c4ccc(Cl)c(OC)c4)cc3)cs2)ccc1O	SW-620 colon	> 100 µM
COc1ccc2c(c1)CC[C@@H]1[C@@H]2CC[C@]2(C)c3c(cc(C(=O)O)c4sccc34)C[C@@H]12	SW-620 colon	36.7 µM
COC(=O)C1=CO[C@@H](OC2OC(CO)C(O)C(O)C2O)[C@H]2[C@@H](C)[C@@H](O)[C@@H](O)[C@@H]12 (some centres undefined)	SW-620 colon	> 100 µM
O=C(O)C(C(=O)O)P(=S)(S)c1ccccc1 (centres undefined)	SW-620 colon	> 100 µM
C[C@@H]1CCC([C@@H](C)[C@H]2CC[C@H]3[C@@H]4CC[C@H]5C[C@@H](O)CC[C@]5(C)[C@H]4CC[C@]23C)=NC1	SW-620 colon	> 100 µM
NNC(=O)CCSc1ccccc1	SW-620 colon	> 100 µM
N#CC1=C(c2ccccc2)C(=C2Nc3ccccc3N2)C2S/C(=C\c3ccccc3)C(=O)N2C1=N (centres undefined)	SW-620 colon	15.8 µM
CCOC(=O)CCSc1nc2ccc(I)cc2c(=O)n1Cc1ccccc1	SW-620 colon	> 100 µM
CCOC(=O)c1cc2c3c(c(C(C)=O)c(O)c2[nH]1)N(C(C)=O)CC3	SW-620 colon	> 100 µM

----------
Test system: A498 renal
test-method-notes: NCI tumour cell line growth inhibition, 48 h
measured-property: TGI

compound	measured-property	result
COc1ccc2c(c1)CC[C@@H]1[C@@H]2CC[C@]2(C)c3c(cc(C(=O)O)c4sccc34)C[C@@H]12	TGI	34.9 µM
NC1CCCCC1N.O=[Se]([O-])[O-].[Pt+4] (centres undefined)	TGI	24.8 µM
O=C(NCc1cccnc1)C1COc2cc(-c3cc(=O)c4ccccc4o3)ccc2O1 (centres undefined)	TGI	99.7 µM
CCOC(=O)C1C(C)C2(C#N)C(=N)OC1(C)C2(C#N)C#N (centres undefined)	TGI	> 100 µM
Nc1nc(N)c(-c2ccccc2)c(C(=O)Nc2ccccc2)n1	TGI	> 100 µM
CC1(C)CC[C@]2(C(=O)O)CC[C@]3(C)C(=CC[C@@H]4[C@@]5(C)C[C@H](O)[C@H](O)[C@@](C)(C(=O)O)[C@@H]5CC[C@]43C)[C@@H]2C1	TGI	> 100 µM
N=N/C(=C\c1c(O)[nH]c2ccccc12)c1ccccc1	TGI	91.6 µM
OC[P+](CO)(CO)C12CC3CC(CC(C3)C1)C2	TGI	> 100 µM
CCC(O)C1Cc2c(C)cc3c(c2O1)C(=O)c1ccccc1C3=O (centres undefined)	TGI	70.3 µM
COC(=O)c1ccccc1CC(Cc1ccc2c(c1)CCC2)C(=O)OC (centres undefined)	TGI	> 100 µM
COc1cc(/C(=C2/O[C@@H]([C@H]3COC(C)(C)O3)[C@H]3OC(C)(C)O[C@@H]23)c2ccc3ccccc3c2)cc(OC)c1OC	TGI	74.6 µM
O=c1/c(=C/c2ccc([N+](=O)[O-])o2)sc2n1[C@@H](c1ccc(Cl)cc1)C=C(c1cc(F)c(Cl)cc1Cl)N=2	TGI	> 100 µM
CCc1nc(N)nc(N)c1-c1ccc2nnn(O)c2c1	TGI	> 100 µM
O=C(CCCN1CCC2(CC1)CC(=O)N(N1CCOCC1)C2=O)c1ccc(F)cc1	TGI	> 100 µM
CCCc1cc(=O)n2c(C(=O)Nc3cccc(C(=O)OCC)c3)c(C(=O)Nc3ccc(F)cc3)sc2n1	TGI	32.2 µM
Cc1ccc(N=NC(=Nc2ccc(Cl)cc2)c2ccc(N(CCC#N)CCC#N)cc2)cc1	TGI	> 100 µM
CC1CC/C(=C\c2ccc(N(C)C)cc2)C2=C1C(c1ccc(N(C)C)cc1)NC(=S)N2 (centres undefined)	TGI	> 100 µM
CCOC(=O)c1cc2c3c(c(C(C)=O)c(O)c2[nH]1)N(C(C)=O)CC3	TGI	> 100 µM
CC/C(=C(/c1ccc(O)cc1)c1ccc(OCCN)cc1)c1ccccc1	TGI	16.8 µM
CCC1CCN=C(NS(=O)(=O)c2cc(C)c(Cl)cc2S)N1 (centres undefined)	TGI	> 100 µM
O=C(O)c1cc2c(cc1CC(Cc1ccc3c(c1)CCCC3)C(=O)O)CCCC2 (centres undefined)	TGI	> 100 µM
COC(=O)C1=C(OC(=O)/C(=C/c2ccccc2)c2ccc(Cl)cc2)C(C(=O)OC)[C@@]2(O)[C@@H](C(=O)OC)[C@H](C)C[C@@H]1[C@@H]2C(=O)OC (some centres undefined)	TGI	> 100 µM
NC(N)=NC(N)=Nc1cnccn1	TGI	> 100 µM
CC(C)(C)OC(=O)NC(Cc1ccc(O)cn1)C(=O)O (centres undefined)	TGI	> 100 µM

----------
Test system: SF-295 CNS
test-method-notes: NCI tumour cell line growth inhibition, 48 h
Below, each entry is listed with its recorded TGI.

compound	output-unit	censoring-sign	TGI
COc1cc2c(cc1OCCCOS(C)(=O)=O)N=C[C@@H]1CCCN1C2=O	µM	>	100
COc1ccc2c(c1)[nH]c(=O)c1c3ccccc3cn21	µM	=	1.05
Cc1ccc([N+](=O)[O-])cc1S(=O)(=O)Nc1ccc(C2=NOC(c3cccs3)C2)cc1 (stereo not drawn)	µM	=	44.1

----------
Tested on: DU-145 prostate
test-method-notes: NCI tumour cell line growth inhibition, 48 h
In this section we review reported TGI values for a set of compounds.
measured-property: TGI

compound	result
COC(=O)C1=CO[C@@H](OC2OC(CO)C(O)C(O)C2O)[C@H]2[C@@H](C)[C@@H](O)[C@@H](O)[C@@H]12 (stereo not given in full)	> 100 µM
CCCN(CCC)C(=S)N/N=C/c1ccccn1	> 43.8 µM
COc1cc2c(cc1OCCCOS(C)(=O)=O)N=C[C@@H]1CCCN1C2=O	> 100 µM
CC1=NN(c2ccc(S(=O)(=O)O)cc2)C(=O)/C1=C/c1ccc(Cl)cc1	> 100 µM
N=C(N)SCc1c2ccccc2c(CSC(=N)N)c2ccccc12	20 µM
c1ccc(C(NC2=NCCO2)c2ccccc2)cc1	> 10 µM
COC(=O)c1ccccc1NC(=NC1CCCCCC1)NS(=O)(=O)c1ccc(C)cc1	> 100 µM
COc1cc(/C(=C2/O[C@@H]([C@H]3COC(C)(C)O3)[C@H]3OC(C)(C)O[C@@H]23)c2ccc3ccccc3c2)cc(OC)c1OC	> 100 µM
COc1ccc2cc(C(=O)/C=C/c3ccc(N(C)C)cc3)ccc2c1	> 100 µM
C/C=C1\CC2C(=O)CCC2C2c3ccccc3OC12 (stereo not given)	10.7 µM

----------
Tested on: SK-OV-3 ovarian
test-method-notes: NCI tumour cell line growth inhibition, 48 h
measured-property: TGI

compound	tested-on	measured-property	result
C[C@@H]1CCC([C@@H](C)[C@H]2CC[C@H]3[C@@H]4CC[C@H]5C[C@@H](O)CC[C@]5(C)[C@H]4CC[C@]23C)=NC1	SK-OV-3 ovarian	TGI	> 100 µM
N#CC1=C(c2ccccc2)C(=C2Nc3ccccc3N2)C2S/C(=C\c3ccccc3)C(=O)N2C1=N (centres undefined)	SK-OV-3 ovarian	TGI	3.62 µM
CN(C)CCCNC(=O)CCNC(=O)c1cc(NC(=O)c2cc(NC(=O)c3cc(NC(=O)c4nccn4C)cn3C)cn2C)cn1C	SK-OV-3 ovarian	TGI	> 100 µM
Cc1nn2c(nc1=O)sc1ccc3ccccc3c12	SK-OV-3 ovarian	TGI	> 100 µM
O[C@H]1[C@H](O)[C@@H](O)[C@@]2(O)CC[C@@H]1N2	SK-OV-3 ovarian	TGI	> 100 µM
C=C1CCCC(C)(C)C1CCC1(C)CCC(C(C)C(=O)OC)OO1 (centres undefined)	SK-OV-3 ovarian	TGI	9.43 µM
O=C1[C@@H]2C(c3ccccc3[N+](=O)[O-])=[N+](c3ccccc3)O[C@@H]2C(=O)N1c1ccc(Cc2ccc(N3C(=O)[C@H]4C(c5ccccc5[N+](=O)[O-])=[N+](c5ccccc5)O[C@H]4C3=O)cc2)cc1	SK-OV-3 ovarian	TGI	> 100 µM
COc1cc2c(cc1OC)CC(=O)Nc1cc(OC)c(OC)cc1CC2	SK-OV-3 ovarian	TGI	> 100 µM
CCC1CCN=C(NS(=O)(=O)c2cc(C)c(Cl)cc2S)N1 (centres undefined)	SK-OV-3 ovarian	TGI	> 100 µM

----------
Tested on: SN12C renal
test-method-notes: NCI tumour cell line growth inhibition, 48 h
measured-property: TGI

compound	result
Cc1ccc2c(c1)c(Sc1ccc(C(=O)NO)cc1)c1n2CN(C)CC1	6.79 µM
COc1cc(/C(=C2/O[C@@H]([C@H]3COC(C)(C)O3)[C@H]3OC(C)(C)O[C@@H]23)c2ccc3ccccc3c2)cc(OC)c1OC	> 100 µM
CC(C)(C)[Si](C)(C)OC1[C@@H](O[Si](C)(C)C(C)(C)C)[C@@H](CNC(=O)NC(=O)CF)O[C@H]1n1cnc2c(NC(=O)Nc3ccccc3)ncnc21 (stereo partly drawn)	13.2 µM
O=C1[C@@H]2C(c3ccccc3[N+](=O)[O-])=[N+](c3ccccc3)O[C@@H]2C(=O)N1c1ccc(Cc2ccc(N3C(=O)[C@H]4C(c5ccccc5[N+](=O)[O-])=[N+](c5ccccc5)O[C@H]4C3=O)cc2)cc1	> 100 µM
N/C(=N/N=C/c1ccccc1)N/N=C\c1ccccc1	> 100 µM
CNC(=O)NCCN1CC2CCC(CC2)C1	> 10 µM
CC(C)(C)OC(=O)NC(Cc1ccc(O)cn1)C(=O)O (stereo not drawn)	> 100 µM
Cc1occc1C(=S)Nc1ccc(Cl)c(/C=N/OC(C)(C)C)c1	31.8 µM
